B1: Pistol ribozyme (parent)
chain: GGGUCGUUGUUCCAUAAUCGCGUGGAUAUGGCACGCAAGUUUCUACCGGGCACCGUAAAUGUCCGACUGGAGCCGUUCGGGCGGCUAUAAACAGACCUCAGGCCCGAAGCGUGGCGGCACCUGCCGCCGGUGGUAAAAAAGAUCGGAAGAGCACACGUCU

Variants of: B1
measurement description: aptazyme ON/OFF ratio, guanine; higher = stronger switching; co-transcriptional cleavage with and without guanine
Provide the reported aptazyme ON/OFF ratio of each item.
Form field (numeric): enter value without unit.

Exercise: GET /values?readout=aptazyme ON/OFF ratio&item= U7C U8C G9C U10C C13G
Solution: 1.12

Exercise: Which value of aptazyme ON/OFF ratio has been reported for U7G G9U U10C C13A in the records?
Solution: 1.37

Exercise: Which aptazyme ON/OFF ratio value belongs to U7A U8C U10G C12G ?
Solution: 1.12

Exercise: Value lookup for aptazyme ON/OFF ratio; key = U7C U8A G9A U10A U11G C12G C13U
Solution: 1.18

Exercise: Looking for the measured aptazyme ON/OFF ratio of U7A U8G G9A U10G C13A , can you help?
Solution: 1.18

Exercise: Please look up its aptazyme ON/OFF ratio: U7A U8G G9U C12A C13U
Solution: 1.2

Exercise: // returns reported aptazyme ON/OFF ratio for input U7C U8A G9U U10G U11A C12A
Solution: 1.34

Exercise: Bench note: what aptazyme ON/OFF ratio did U8G G9C U10A U11C show?
Solution: 1.03

Exercise: Could you tell me which aptazyme ON/OFF ratio is on file for U7C G9A U10A U11G C12U C13U ?
Solution: 1.27

Exercise: Given U7C G9A U10C C12U , state its recorded aptazyme ON/OFF ratio.
Solution: 1.2

Exercise: What measured aptazyme ON/OFF ratio goes with U7G U10C U11C ?
Solution: 1.07

Exercise: Fill in: aptazyme ON/OFF ratio of U8A G9A U10C C12A C13G is ___
Solution: 1.13

Exercise: # lookup: aptazyme ON/OFF ratio of U7G U8G G9U U10A U11G C12A C13A
Solution: 1.1

Exercise: Need aptazyme ON/OFF ratio, item U7A U8A G9U C12U
Solution: 1.32

Exercise: For the variant G9U U11G C12U C13A , what aptazyme ON/OFF ratio is on record?
Solution: 1.43

Exercise: Fill in the blank: the reported aptazyme ON/OFF ratio of U7C G9U U10G U11C C12A is ____.
Solution: 1.2

Exercise: I'd like to know its aptazyme ON/OFF ratio. The variant in question is U7G G9A U10G C12G C13G
Solution: 1.12

Exercise: Can you look up the measured aptazyme ON/OFF ratio of U7G U8G G9C U10C U11A C12U C13G for me?
Solution: 1.32

Exercise: Quick one: aptazyme ON/OFF ratio for U8C G9A U10A C12G C13G ?
Solution: 1.18

Exercise: What aptazyme ON/OFF ratio value was documented for this variant, U7C U8A G9C U10A U11A C12A C13A ?
Solution: 1.19

Exercise: Reported aptazyme ON/OFF ratio for U8A G9A U10G U11G C13A : what is it?
Solution: 1.17

Exercise: Reported aptazyme ON/OFF ratio for U7C U8A G9A U11A C12A C13G : what is it?
Solution: 1.22

Exercise: Field request: aptazyme ON/OFF ratio | item: U7G U8C G9U U10C U11A C13U
Solution: 1.79

Exercise: Entry U7A U8C G9U U11G C13U has what aptazyme ON/OFF ratio?
Solution: 1.27

Exercise: Which aptazyme ON/OFF ratio value is on record for U7G G9U U10A U11A C12G ?
Solution: 1.41

Exercise: What aptazyme ON/OFF ratio value was documented for this variant, U7G G9A U11A C12G ?
Solution: 1.21

Exercise: Which aptazyme ON/OFF ratio is reported for this variant? U7A U8G G9A U10A U11A C13G
Solution: 1.17

Exercise: aptazyme ON/OFF ratio lookup needed for U7A U8A G9C U11C , thanks.
Solution: 1.05

Exercise: Query: aptazyme ON/OFF ratio; subject: U7G U8G G9U U10C C12U C13U
Solution: 1.35

Exercise: What value of aptazyme ON/OFF ratio has been recorded for this entry: U7A U8A G9A U10C U11G C12U
Solution: 1.11

Exercise: Need aptazyme ON/OFF ratio of U7C U8A G9U U10G U11A C12A C13A , thanks.
Solution: 1.35

Exercise: Fill blank: measured aptazyme ON/OFF ratio of the variant U7A U8A U11G C12A C13A is ____.
Solution: 1.15

Exercise: Request the reported aptazyme ON/OFF ratio associated with U8A G9U U10C C12U C13U
Solution: 1.18

Exercise: Please report the recorded aptazyme ON/OFF ratio for U7G G9U U10C U11C C12G C13A .
Solution: 1.17

Exercise: What value of aptazyme ON/OFF ratio has been reported for the following variant? U8C G9C U10A U11G C12A C13U
Solution: 1.07

Exercise: Dear colleague, I am looking for the recorded aptazyme ON/OFF ratio of the following variant: G9A U10A U11A C12U C13U
Solution: 1.57

Exercise: What value of aptazyme ON/OFF ratio has been reported for the following variant? U7A U8A G9A U10A U11A C12A C13G
Solution: 1.21

Exercise: Bench note: what aptazyme ON/OFF ratio did U8G G9C U10G U11C C12G show?
Solution: 1.03

Exercise: Using the record for U8A U10A U11G C12A C13U , report its aptazyme ON/OFF ratio.
Solution: 1.07

Exercise: Query (variant): U7G U8A G9C U10A U11C C12A C13A ; field requested: aptazyme ON/OFF ratio
Solution: 1.04

Exercise: What does the record list as aptazyme ON/OFF ratio for U7G U8C G9U U10C C13U ?
Solution: 1.47

Exercise: Which aptazyme ON/OFF ratio value is on record for U8A U11C C12G C13U ?
Solution: 1.12

Exercise: Query (variant): U7C U8C U10G C13U ; field requested: aptazyme ON/OFF ratio
Solution: 1.12

Exercise: Requested read-out: aptazyme ON/OFF ratio. Entry: U7C U8G U10C U11C C12G C13A
Solution: 1.14

Exercise: // returns reported aptazyme ON/OFF ratio for input U7A U11G C12G C13U
Solution: 1.23

Exercise: Which measured aptazyme ON/OFF ratio value corresponds to U7G U8C U11C C12G ?
Solution: 1.38

Exercise: What does the data say about its aptazyme ON/OFF ratio? Entry: U8A G9C U10C U11C C12U
Solution: 1

Exercise: What value of aptazyme ON/OFF ratio has been reported for the following variant? U8G G9U U11C C13U
Solution: 1.08

Exercise: Reported aptazyme ON/OFF ratio for U7A G9U U10G C12U C13A : what is it?
Solution: 1.32

Exercise: Consider the variant shown here: U7C G9U U11C C13G What is its recorded aptazyme ON/OFF ratio?
Solution: 1.02

Exercise: What aptazyme ON/OFF ratio value was documented for this variant, U7C U8C G9U U11C C12A C13G ?
Solution: 1.04

Exercise: aptazyme ON/OFF ratio lookup needed for U8C G9A U10C U11G C12G C13U , thanks.
Solution: 1.14

Exercise: # query: aptazyme ON/OFF ratio of entry U7A U8A G9C U10C U11A C12U C13G
Solution: 1.1

Exercise: Please report the recorded aptazyme ON/OFF ratio for U7C U8A G9A U10G U11A C12G C13A .
Solution: 1.06

Exercise: For U7C U8G G9C U10C U11G C12G C13A , what is its reported aptazyme ON/OFF ratio?
Solution: 1.12

Exercise: Request the reported aptazyme ON/OFF ratio associated with U7G G9A U10C U11A C12U C13G
Solution: 1.05

Exercise: Please report the recorded aptazyme ON/OFF ratio for U7C G9U U10A C12G C13U .
Solution: 1.27

Exercise: I have this variant here, U8G G9C U10G U11A C13G , and I need its recorded aptazyme ON/OFF ratio.
Solution: 1.03

Exercise: Would you kindly share the measured aptazyme ON/OFF ratio for U7A U8A G9U U10A U11C C12A C13U ?
Solution: 1.14

Exercise: Given U7G U10C U11C C12G C13A , state its recorded aptazyme ON/OFF ratio.
Solution: 1.1

Exercise: Which aptazyme ON/OFF ratio value belongs to U8G G9U U10C U11G ?
Solution: 1.15

Exercise: Can you share its aptazyme ON/OFF ratio? I mean this variant: U7G G9A U11A
Solution: 2.46

Exercise: # query: aptazyme ON/OFF ratio of entry U7A U8G G9U U10C C12U C13A
Solution: 1.34

Exercise: State the recorded aptazyme ON/OFF ratio for this entry: U8A G9A U11C C12U C13G
Solution: 1.2

Exercise: Please give the measured aptazyme ON/OFF ratio for this variant: U7A U8C G9A U10C U11C C12A
Solution: 1.18

Exercise: Endpoint output: aptazyme ON/OFF ratio of U7G U8G G9U U10C U11A C13A . Value?
Solution: 1.38

Exercise: Would you mind telling me what aptazyme ON/OFF ratio value was observed for U7A U8A G9C U10G C12A ?
Solution: 1.1

Exercise: What value of aptazyme ON/OFF ratio has been recorded for this entry: U7A U8A G9U U10A U11G C12U C13U
Solution: 1.27

Exercise: Fill blank: measured aptazyme ON/OFF ratio of the variant U8G G9U U11G C12G C13A is ____.
Solution: 1.21

Exercise: What does the record list as aptazyme ON/OFF ratio for U7C U8G G9A U11A C12G C13A ?
Solution: 1.12

Exercise: Look up aptazyme ON/OFF ratio: U8C G9A U10A C13G
Solution: 1.05

Exercise: Can you look up the measured aptazyme ON/OFF ratio of U8C G9A U10G C13U for me?
Solution: 1.26

Exercise: Please look up its aptazyme ON/OFF ratio: G9A U11A C12G C13A
Solution: 1.39

Exercise: I would be grateful if you could share the reported aptazyme ON/OFF ratio for U7G G9C U10G U11C C12A .
Solution: 1.69

Exercise: Entry under review: U7G C12A C13U . Reported aptazyme ON/OFF ratio?
Solution: 1.21

Exercise: Can you share its aptazyme ON/OFF ratio? I mean this variant: U7A U8G G9C U10C C12G C13G
Solution: 1.2

Exercise: Need aptazyme ON/OFF ratio, item U7C U8A G9C U11G C12A C13A
Solution: 1.13

Exercise: What does the data say about its aptazyme ON/OFF ratio? Entry: U10A U11A C13U
Solution: 1.35

Exercise: Param item = U7A U8C G9C U10G U11G C12U ; retrieve measured aptazyme ON/OFF ratio.
Solution: 1.05

Exercise: Which aptazyme ON/OFF ratio value is on record for U7A U10C U11G C12G C13U ?
Solution: 1.18

Exercise: Quick check: aptazyme ON/OFF ratio of U7G U8G C12G ?
Solution: 1.38

Exercise: May I ask what aptazyme ON/OFF ratio has been recorded for U8C G9U U10G U11G C12G C13A ?
Solution: 1.14

Exercise: What does the data say about its aptazyme ON/OFF ratio? Entry: U7A U8G U10G U11C C12G C13G
Solution: 1.22
